Test system: MS2 coat protein
PROTOCOL: apparent KD of MS2 coat protein; designed switch direction (-1 OFF switch, 1 ON switch): -1; higher = weaker reporter binding
CONDITIONS_USED: input ligand: FMN 200 uM
MEASURE_NAME: apparent KD of MS2 coat protein (µM)
Please reply with the bare figure in µM and do not write the unit itself.

// worked examples, apparent KD of MS2 coat protein included
RESIDUE_CODES | UNIT_ABBREVIATION | TEST_VALUE
AGGUGCCUCUGGAAACAUGAGGAUCACCCAUGUUGAGUUAGCGAGGAUAUCGGUAACCAUUGUUAUGAGAAGGCGCAAACCAGA [Ex NG3 #38] (Eterna round: R96, puzzle: Exclusion NG 3) | µM | 0.0607
CCGCAGUGAGGAUAUUGUCAUAGACGGUGUGAAUCACGGGACAAGAAGGUACAUGAGGAUCACCCAUGUGGGUG [Eternabot (L1) Solution 1] (Eterna round: R97, puzzle: Exclusion 4) | µM | 0.0543
UAAAGUAUAUAGGAUAUCUAGCUGGUAACAGCUAGAGAAGGAUGUACAUGAGGAUCACCCAUGUAAAUCGUGAA [Ex6/13-A2] (Eterna round: R97, puzzle: Exclusion 6) | µM | 0.0205
UUGUAACAUGAGGAUCACCCAUGUGAGGAUAUGGCCCGCCCGGCGUGAGCUGGUUUUGUCAGAAGGCGCAUAGG [salish99_ex1_r4_022] (Eterna round: R97, puzzle: Exclusion 1) | µM | 0.158
GAAUACAGAGGAUAUGCGUAAUAGGUAGUAAGAUAUAUAUGACAUGAGGAUCACCCAUGUAGAAGGCUGAGAUA [EX2 #1] (Eterna round: R97, puzzle: Exclusion 2) | µM | 0.0269
UUAAAACAUGUAGGAUAUGCGUAGAAAAGCUAUGCAGAAGGACAUGAGGAUCACCCAUGUUCAACCAUCAACGUACAGAUGGAA (Eterna round: R96, puzzle: Exclusion NG 1) | µM | 0.0317

Ask: Reported apparent KD of MS2 coat protein, sequence GGGAGGAGAGUGAGGAUAUUCGAGGGAGGGAGGGUGAAGAAGGCACAUGAGGAUCACCCAUGUGGUGGGAGGUU [RHig 1] (Eterna round: R97, puzzle: Brourd's mod of Exclusion 4) : ____
Reply: 0.0239

Ask: Reported apparent KD of MS2 coat protein, sequence UUCCUACAUGAGGAUCACCCAUGUGAGGAUAUGCAUCGUAUUAUUCUCGUAUGUAGUAGCAGAAGGCGCAUUGG [Starry Exclusion 1.1] (Eterna round: R96, puzzle: Exclusion 1) : ____
Reply: 0.0825

Ask: Reported apparent KD of MS2 coat protein, sequence AAAACUGCCUAGGAUAUCUGAAGCCGAGGUAGAAGAGAAGGAGGCACAUGAGGAUCACCCAUGUCCCUCAUAAA [EX6 A.8] (Eterna round: R97, puzzle: Exclusion 6) : ____
Reply: 0.0168

Ask: Reported apparent KD of MS2 coat protein, sequence AAAUUGCUAGAGGAUAUCGGAUAGGAUCUAUCGCGAGAAGGCUGGACAUGAGGAUCACCCAUGUUCUGUUGGGA [EX6 #29] (Eterna round: R97, puzzle: Exclusion 6) : ____
Reply: 0.0574
